Tested on: Acinetobacter baumannii
run.description: Broth microdilution MIC (CLSI), Acinetobacter baumannii
Assay type: cell-based
reported.conditions: Acinetobacter baumannii, strain ACM1027, adeN (AdeIJK overexpression)
Just a reminder that ties go to 0.0: only MIC strictly below 60 µg/mL counts as 1.0.

Sample answers from the record:
O=C(O)c1c(F)ccc2c1OB(O)[C@@H]1C[C@H]21 ... 1.0
C[C@H]1[C@H](NC(=O)/C(=N\OC(C)(C)C(=O)O)c2csc(N)n2)C(=O)N1S(=O)(=O)O ... 0.0
NC(=O)[C@@H]1CC[C@@H]2CN1C(=O)N2OS(=O)(=O)O ... 0.0

Q) MIC strictly < 60 µg/mL for this compound? `C[C@@H](O)[C@H]1C(=O)N2C(C(=O)O)=C(S[C@@H]3CN[C@H](C(=O)N(C)C)C3)[C@H](C)[C@H]12`
A) 1.0

Q) In plain terms, does CO/N=C(\C(=O)N[C@@H]1C(=O)N2C(C(=O)[O-])=C(C[N+]3(C)CCCC3)CS[C@H]12)c1csc(N)n1 [Cefepime] come in under 60 µg/mL for MIC?
A) 1.0

Q) State whether 60 µg/mL exceeds MIC recorded for `NCCONC(=O)[C@@H]1CC[C@@H]2CN1C(=O)N2OS(=O)(=O)O` .
A) 0.0

Q) Find out if reported MIC for `CC1=C[C@@H]2CN(C(=O)N2OS(=O)(=O)O)[C@@H]1C(N)=O` is less than 60 µg/mL
A) 0.0

Q) Check if MIC falls below 60 µg/mL for `O=C(NNC(=O)[C@@H]1CC[C@@H]2CN1C(=O)N2OS(=O)(=O)O)[C@@H]1CCCNC1` .
A) 0.0

* * *

target.or.test.system: PBP3 (Pseudomonas aeruginosa, UniProt G3XD46)
Construct: endogenous in cells
Sequence (G3XD46 whole entry): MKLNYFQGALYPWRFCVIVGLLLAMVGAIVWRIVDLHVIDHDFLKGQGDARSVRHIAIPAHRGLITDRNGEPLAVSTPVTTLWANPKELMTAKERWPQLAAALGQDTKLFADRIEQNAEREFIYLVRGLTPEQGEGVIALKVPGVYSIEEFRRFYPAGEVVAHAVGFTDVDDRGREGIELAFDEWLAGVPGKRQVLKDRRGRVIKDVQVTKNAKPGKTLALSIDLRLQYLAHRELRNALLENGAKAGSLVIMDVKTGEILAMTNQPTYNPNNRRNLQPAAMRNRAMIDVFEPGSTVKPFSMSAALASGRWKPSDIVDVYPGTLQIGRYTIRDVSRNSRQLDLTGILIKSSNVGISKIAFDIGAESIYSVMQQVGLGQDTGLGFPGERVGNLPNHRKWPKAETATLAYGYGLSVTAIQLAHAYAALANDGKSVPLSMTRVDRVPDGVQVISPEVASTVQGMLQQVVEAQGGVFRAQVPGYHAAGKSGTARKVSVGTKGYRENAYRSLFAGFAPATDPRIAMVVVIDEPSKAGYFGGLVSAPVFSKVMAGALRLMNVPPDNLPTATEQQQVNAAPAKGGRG
run.description: Gel-based Bocillin FL competition PBP binding assay
reported.conditions: P. aeruginosa PAM3034 membranes; Bocillin FL step 0°C for xeruborbactam, 30°C for beta-lactams; read-out: Relative binding IC50, PBP3
endpoint.name: IC50 (µM)
# value in µM; strip the unit string

Q) State the recorded IC50 for this entry: `O=C(O)c1c(F)ccc2c1OB(O)[C@@H]1C[C@H]21`
A) 510

* * *

Tested on: Klebsiella pneumoniae
run.description: microbe, parasite or virus in culture
Type: cell-based
reported.conditions: Klebsiella pneumoniae, KPM4238, TolQ::S25F
endpoint.name: MIC

Observe how each entry below is paired with its result.
C[C@@H](O)[C@H]1C(=O)N2C(C(=O)O)=C(S[C@@H]3CN[C@H](C(=O)N(C)C)C3)[C@H](C)[C@H]12 [Meropenem] ... 0.06 µg/mL
CC1(C)S[C@@H]2[C@H](/N=C/N3CCCCCC3)C(=O)N2[C@H]1C(=O)O [Mecillinam] ... > 64 µg/mL
CC1=C[C@@H]2CN(C(=O)N2OS(=O)(=O)O)[C@@H]1C(N)=O [Durlobactam] ... 16 µg/mL
O=C(O)c1c(F)ccc2c1OB(O)[C@@H]1C[C@H]21 [Xeruborbactam] ... 32 µg/mL
CO/N=C(\C(=O)N[C@@H]1C(=O)N2C(C(=O)[O-])=C(C[N+]3(C)CCCC3)CS[C@H]12)c1csc(N)n1 [Cefepime] ... 0.125 µg/mL

Q) Suppose we examine the compound NC(=O)[C@@H]1CC[C@@H]2CN1C(=O)N2OS(=O)(=O)O [Avibactam] ; what MIC value has been reported?
A) > 64 µg/mL

Q) Could you tell me which MIC is on file for O=C(NNC(=O)[C@@H]1CC[C@@H]2CN1C(=O)N2OS(=O)(=O)O)[C@@H]1CCCNC1 [Zidebactam] ?
A) > 64 µg/mL

* * *

target.or.test.system: PBP1a/PBP1b, PBP2, and PBP3
run.description: Bocillin FL competition PBP binding assay, summary for two species
reported.conditions: PBP2, and PBP3 from E. coli and K. pneumoniae, read-out: IC50 range
Description: Ten milliliters of overnight bacterial culture was inoculated in 1 L of LB medium and grown to an OD600 of 0.7 to 0.9. […] Five microliters of total bacterial membrane preparation was mixed with 5 μL of a test compound at a desired concentration in 100 mM Na-phosphate buffer, pH 7.0. […] IC50 values were calculated with Prism software (GraphPad).
endpoint.name: IC50

Q) What IC50 value was documented for this compound, O=C(O)c1c(F)ccc2c1OB(O)[C@@H]1C[C@H]21 [Xeruborbactam] ?
A) 40 to 70 µM

* * *

target.or.test.system: PBP1a (Klebsiella pneumoniae, UniProt A0A0H3GZF1)
run.description: Gel-based Bocillin FL competition PBP binding assay
reported.conditions: K. pneumoniae KPM1001 membranes; Bocillin FL step 0°C for xeruborbactam, 30°C for beta-lactams; read-out: Relative binding IC50, PBP1a
endpoint.name: IC50
Remember to follow the number with its unit.

Q) Query: IC50; subject: `O=C(O)c1c(F)ccc2c1OB(O)[C@@H]1C[C@H]21`
A) 41 µM

* * *

Test system: Klebsiella pneumoniae
run.description: microbe, parasite or virus in culture
Assay type: cell-based
reported.conditions: Klebsiella pneumoniae, strain KPM1026a, wild type; read-out: MIC
endpoint.name: log10(MIC) (log10 of the value in µg/mL)
In our notation, the value equals log10 of MIC in µg/mL.

These recorded examples may help you get a feel for the data.
O=C(O)c1c(F)ccc2c1OB(O)[C@@H]1C[C@H]21 ... 1.20
O=C(NNC(=O)[C@@H]1CC[C@@H]2CN1C(=O)N2OS(=O)(=O)O)[C@@H]1CCCNC1 ... -0.60
NC(=O)[C@@H]1CC[C@@H]2CN1C(=O)N2OS(=O)(=O)O ... 1.20
CO/N=C(\C(=O)N[C@@H]1C(=O)N2C(C(=O)[O-])=C(C[N+]3(C)CCCC3)CS[C@H]12)c1csc(N)n1 [Cefepime] ... -1.52

Q) Klebsiella pneumoniae / log10(MIC) / `NCCONC(=O)[C@@H]1CC[C@@H]2CN1C(=O)N2OS(=O)(=O)O` : value?
A) 0.90

Q) Value wanted: log10(MIC) (Klebsiella pneumoniae) of entry `CC1=C[C@@H]2CN(C(=O)N2OS(=O)(=O)O)[C@@H]1C(N)=O`
A) -0.30

* * *

target.or.test.system: PBP2 (Klebsiella pneumoniae)
run.description: Gel-based Bocillin FL competition PBP binding assay
reported.conditions: K. pneumoniae KPM1001 membranes; Bocillin FL step 0°C for xeruborbactam, 30°C for beta-lactams; read-out: Relative binding IC50, PBP2
endpoint.name: IC50 (µM)
# value in µM; strip the unit string

Q) Form entry - test system: PBP2 (Klebsiella pneumoniae); read-out: IC50; molecule: `O=C(O)c1c(F)ccc2c1OB(O)[C@@H]1C[C@H]21`
A) 51

* * *

target.or.test.system: PBP3 (Klebsiella pneumoniae)
Sequence (A0A0H3GN85 entry or part of it): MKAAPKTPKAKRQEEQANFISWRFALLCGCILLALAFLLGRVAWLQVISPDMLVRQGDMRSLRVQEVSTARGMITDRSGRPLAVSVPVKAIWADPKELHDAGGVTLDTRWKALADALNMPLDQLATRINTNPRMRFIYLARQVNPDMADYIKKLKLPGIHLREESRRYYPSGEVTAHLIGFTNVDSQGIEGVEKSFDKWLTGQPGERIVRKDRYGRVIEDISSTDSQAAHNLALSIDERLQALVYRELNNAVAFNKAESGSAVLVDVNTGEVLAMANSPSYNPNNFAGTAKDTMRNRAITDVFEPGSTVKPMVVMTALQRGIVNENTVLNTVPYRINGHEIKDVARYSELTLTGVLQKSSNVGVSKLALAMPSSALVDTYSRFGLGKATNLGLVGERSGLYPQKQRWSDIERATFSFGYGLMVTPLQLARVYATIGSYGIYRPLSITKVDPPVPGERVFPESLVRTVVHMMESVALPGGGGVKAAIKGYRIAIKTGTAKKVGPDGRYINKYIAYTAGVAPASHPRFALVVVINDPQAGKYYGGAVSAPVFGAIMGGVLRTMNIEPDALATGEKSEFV
run.description: Gel-based Bocillin FL competition PBP binding assay
reported.conditions: read-out: Relative binding IC50, PBP3; K. pneumoniae KPM1001 membranes; Bocillin FL step 0°C for xeruborbactam, 30°C for beta-lactams
endpoint.name: pIC50
Lab note: report pIC50 as minus log10 of the concentration in molar units, number only.

Q) Which pIC50 is reported for this compound? C[C@@H](O)[C@H]1C(=O)N2C(C(=O)O)=C(S[C@@H]3CN[C@H](C(=O)N(C)C)C3)[C@H](C)[C@H]12 [Meropenem]
A) 6.62

* * *

Test system: Klebsiella pneumoniae
run.description: microbe, parasite or virus in culture
Type: cell-based
reported.conditions: Klebsiella pneumoniae, strain KPM2613, ΔompK35 ompK36_2040
Item-by-item account of MIC
Express your answer in µg/mL, writing the number without its unit.

CC1=C[C@@H]2CN(C(=O)N2OS(=O)(=O)O)[C@@H]1C(N)=O ... 8
NC(=O)[C@@H]1CC[C@@H]2CN1C(=O)N2OS(=O)(=O)O ... 256
C[C@@H](O)[C@H]1C(=O)N2C(C(=O)O)=C(S[C@@H]3CN[C@H](C(=O)N(C)C)C3)[C@H](C)[C@H]12 ... 0.25
CO/N=C(\C(=O)N[C@@H]1C(=O)N2C(C(=O)[O-])=C(C[N+]3(C)CCCC3)CS[C@H]12)c1csc(N)n1 [Cefepime] ... 0.25

Then there is this compound:
Q) So what's the measured MIC for this one? `O=C(O)c1c(F)ccc2c1OB(O)[C@@H]1C[C@H]21`
A) 32

* * *

Overview of recorded MIC for various compounds
Test system: Escherichia coli
run.description: Broth microdilution MIC (CLSI), Escherichia coli
Format: cell-based
reported.conditions: EC1105; PBP2 A543T, PBP3 YRIN ins, Q227H, E349K, I532L

Q) What value of MIC on Escherichia coli does `O=C(NNC(=O)[C@@H]1CC[C@@H]2CN1C(=O)N2OS(=O)(=O)O)[C@@H]1CCCNC1` have?
A) 0.5

Q) Record lookup: for Escherichia coli, what MIC belongs to `CC1=C[C@@H]2CN(C(=O)N2OS(=O)(=O)O)[C@@H]1C(N)=O` ?
A) 1

Q) Escherichia coli / MIC / `C[C@H]1[C@H](NC(=O)/C(=N\OC(C)(C)C(=O)O)c2csc(N)n2)C(=O)N1S(=O)(=O)O` : value?
A) > 64

Q) Checklist item: MIC tested on Escherichia coli, entry `O=C(O)c1c(F)ccc2c1OB(O)[C@@H]1C[C@H]21` , value?
A) 8
